Attribution: ChEMBL document CHEMBL4145553

Record form. Attribute: growth, % of control at 10 µM. Fill in for each entry.
# System: OVCAR-5
# run.description: Growth of human OVCAR5 cells at 10 uM incubated for 48 hrs by sulforhodamine B assay relative to control
# conditions.used: OVCAR-5, 48 h
Give bare numbers, in %.

Enter reported growth, % of control at 10 µM observed with OVCAR-5 for `CCS/C(Nc1ccccc1)=C(\C#N)C(=O)N/N=C\c1ccco1`
106

// input: 4 compounds below; output: growth, % of control at 10 µM for each
1. CC(C)(C)S/C(Nc1ccccc1)=C(\C#N)C(=O)N/N=C\c1ccc(Cl)cc1Cl
2. CCS/C(Nc1ccccc1)=C(\C#N)C(=O)Nc1ccccc1
3. CC(C)(C)S/C(Nc1ccccc1)=C(\C#N)C(=O)Nc1ccccc1
4. CC(C)(C)S/C(Nc1ccccc1)=C(\C#N)C(=O)N/N=C\c1ccco1

1. 106
2. 96.5
3. 100
4. 101

* * *

# System: A498
# run.description: Growth inhibition of human A498 cells at 10 uM incubated for 48 hrs by sulforhodamine B assay relative to control
# Format: functional
# conditions.used: A498, 48 h, values are per cent of control
Hi! Just check whether growth, % of control at 10 µM is below 90%. Below gives YES, equal or above gives NO.

Is growth, % of control at 10 µM of `CC(C)(C)S/C(Nc1ccccc1)=C(\C#N)C(=O)Nc1ccccc1` strictly below 90%?
NO

Also `CC(C)(C)S/C(Nc1ccccc1)=C(\C#N)C(=O)N/N=C\c1ccc(Cl)cc1Cl` ?
NO

Also `CC(C)(C)S/C(Nc1ccccc1)=C(\C#N)C(=O)N/N=C\c1ccco1` ?
YES

Next:
Is growth, % of control at 10 µM of `CCS/C(Nc1ccccc1)=C(\C#N)C(=O)N/N=C\c1ccc(Cl)cc1Cl` strictly below 90%?
YES

Also `CCS/C(Nc1ccccc1)=C(\C#N)C(=O)Nc1ccc(OC)cc1` ?
YES

* * *

Record form. Attribute: growth, % of control at 10 µM. Fill in for each entry.
# System: HL-60(TB)
# run.description: Growth inhibition of human HL-60(TB) cells at 10 uM incubated for 48 hrs by sulforhodamine B assay relative to control
# Type: functional
# conditions.used: HL-60, 48 h, values are per cent of control

// worked examples, growth, % of control at 10 µM included
Enter reported growth, % of control at 10 µM observed with HL-60(TB) for `CCS/C(Nc1ccccc1)=C(\C#N)C(=O)N/N=C\c1ccco1`
84.2%

Also `CCS/C(Nc1ccccc1)=C(\C#N)C(=O)Nc1ccccc1` ?
58.1%

// input: 3 molecules below; output: growth, % of control at 10 µM for each
1. CC(C)(C)S/C(Nc1ccccc1)=C(\C#N)C(=O)N/N=C\c1ccco1
2. CCS/C(Nc1ccccc1)=C(\C#N)C(=O)N/N=C\c1ccc(Cl)cc1Cl
3. CCS/C(Nc1ccccc1)=C(\C#N)C(=O)Nc1ccc(C)cc1

1. 63.6%
2. -31.4%
3. 45.9%

// input: 3 molecules below; output: growth, % of control at 10 µM for each
1. CC(C)(C)S/C(Nc1ccccc1)=C(\C#N)C(=O)Nc1ccccc1
2. CC(C)(C)S/C(Nc1ccccc1)=C(\C#N)C(=O)N/N=C\c1ccc(Cl)cc1Cl
3. CCS/C(Nc1ccccc1)=C(\C#N)C(=O)Nc1ccc(OC)cc1

1: 82.3%; 2: 89.2%; 3: -15.6%
